Molecular target: Electrophorus electricus AChE (Electrophorus electricus, UniProt O42275)
Construct: purchased Sigma-Aldrich, USA Type VI-S
Sequence (O42275 24-633): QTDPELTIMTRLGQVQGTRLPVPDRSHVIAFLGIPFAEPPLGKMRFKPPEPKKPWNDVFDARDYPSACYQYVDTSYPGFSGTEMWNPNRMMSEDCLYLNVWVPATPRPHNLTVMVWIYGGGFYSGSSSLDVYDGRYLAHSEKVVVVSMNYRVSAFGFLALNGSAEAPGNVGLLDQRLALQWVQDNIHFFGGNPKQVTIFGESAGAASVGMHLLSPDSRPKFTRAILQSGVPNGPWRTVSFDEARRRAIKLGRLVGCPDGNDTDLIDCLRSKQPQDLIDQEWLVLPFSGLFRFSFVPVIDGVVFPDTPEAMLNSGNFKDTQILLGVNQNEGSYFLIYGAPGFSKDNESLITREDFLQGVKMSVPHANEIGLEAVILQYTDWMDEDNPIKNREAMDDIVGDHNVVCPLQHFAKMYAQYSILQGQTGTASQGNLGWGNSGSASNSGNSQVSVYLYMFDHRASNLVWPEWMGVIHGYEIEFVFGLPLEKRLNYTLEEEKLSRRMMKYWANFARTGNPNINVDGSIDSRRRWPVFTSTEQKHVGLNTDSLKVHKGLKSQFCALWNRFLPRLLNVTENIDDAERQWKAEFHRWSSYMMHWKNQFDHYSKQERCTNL
Test: biochemical
Conditions: read-out: % Inhibition at concentration of 1 μM, 1 μM
Quantity: inhibition at 1 µM

These solved cases illustrate the format of a correct answer.
{"Compound": "COc1cc2cc(NC(=O)c3ccncc3)c(=O)oc2cc1OC [compound 9]", "inhibition at 1 µM": "< 10%"}
{"Compound": "O=C(Cc1ccncc1)Nc1cc2ccccc2oc1=O [compound 5]", "inhibition at 1 µM": "< 10%"}

Moving on to another compound below.
Given the compound COc1cc2cc(NC(=O)Cc3ccncc3)c(=O)oc2cc1OC [compound 10] , what is its reported inhibition at 1 µM?
< 10%
